Biological target: P70S6K (Homo sapiens (Human), UniProt P23443, T412E)
Sequence (P23443 1-421 T412E): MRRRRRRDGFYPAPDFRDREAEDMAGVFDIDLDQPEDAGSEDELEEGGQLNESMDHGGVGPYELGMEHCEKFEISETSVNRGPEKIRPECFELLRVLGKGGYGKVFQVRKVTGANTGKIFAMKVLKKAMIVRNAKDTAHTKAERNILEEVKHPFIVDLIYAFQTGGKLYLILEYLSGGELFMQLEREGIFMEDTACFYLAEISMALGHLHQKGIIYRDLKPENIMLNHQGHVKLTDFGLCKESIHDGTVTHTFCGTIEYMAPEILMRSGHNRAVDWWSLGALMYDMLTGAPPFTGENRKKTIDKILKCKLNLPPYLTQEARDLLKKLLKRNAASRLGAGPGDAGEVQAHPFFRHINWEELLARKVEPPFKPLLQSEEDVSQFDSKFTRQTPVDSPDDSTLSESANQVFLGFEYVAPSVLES
Assay: P70S6K Enzyme Assay
Details: P70S6K T412E mutant, 24 μM ATP, mobility shift (Caliper)
Protocol: P70S6K inhibitor compounds are diluted and plated in 96 well plates. […] The reaction is incubated for 90 min at 25° C., before the addition of 10 mM EDTA to stop the reaction. The proportion of substrate and product (phosphorylated) peptide is analysed on a Caliper Life Sciences Lab Chip 3000, using a pressure of −1.4 psi, and upstream and downstream voltages of −3000 and −700 respectively. Product peaks are resolved before substrate peaks on the resulting chromatograms.
Simple rule here: IC50 less than 1 µM is True, otherwise False.

Check if IC50 falls below 1 µM for NC(=O)c1ccc(NCCc2ccc(F)c(F)c2)c2cncnc12 .
True

Lab note: IC50 threshold 1 µM. Does this compound come in strictly under it? NC(=O)c1ccc(N2CCN(c3ccccc3Cl)CC2)c2cncnc12
True

Is it true that IC50 reported for CN1CCC(Nc2ccc(C(N)=O)c3ncncc23)C1 (racemic) is less than 1 µM?
False

For NCC1(C(=O)Nc2ccccc2)CCCN(c2ccc(C(N)=O)c3ncncc23)C1 (racemic) , is the recorded IC50 below the cut-off of 1 µM?
False

Field: below-cutoff. Rule: recorded IC50 strictly less than 1 µM. Subject: CN(C)CCN(Cc1ccccc1)C(=O)C1CCN(c2ccc(C(N)=O)c3ncncc23)C1 (racemic)
False

Find out if reported IC50 for NC(=O)c1ccc(NC(=O)C(N)c2ccccc2)c2cccnc12 (racemic) is less than 1 µM
False

Quick check: IC50 of NC(=O)c1ccc(N2CCC(O)(c3ccccc3)C2)c2cncnc12 (racemic) under 1 µM?
False

Determine whether this compound shows IC50 lower than 1 µM (ties excluded): NC(=O)c1ccc(NC(CN2CCCC2)c2ccccc2)c2cccnc12 (stereo not drawn)
False

---

Target: P70S6K (Homo sapiens (Human), UniProt P23443, T412E)
Assay: P70S6K Enzyme Assay
Details: P70S6K T412E mutant, 24 μM ATP, mobility shift (Caliper)
Experimental: P70S6K inhibitor compounds are diluted and plated in 96 well plates. […] The reaction is incubated for 90 min at 25° C., before the addition of 10 mM EDTA to stop the reaction. The proportion of substrate and product (phosphorylated) peptide is analysed on a Caliper Life Sciences Lab Chip 3000, using a pressure of −1.4 psi, and upstream and downstream voltages of −3000 and −700 respectively. Product peaks are resolved before substrate peaks on the resulting chromatograms.
Mark yes (1) for IC50 under 60 nM, no (0) if at or over.

• NC(=O)c1ccc(NCc2ccc(F)c(F)c2)c2cccnc12 [Example 35] = no (0)
• NC(=O)c1ccc(NC[C@@H]2CCNC2)c2cncnc12 [Example 60] = no (0)
• NC(=O)c1ccc(N[C@@H]2CNCC[C@H]2c2ccc(C(F)(F)F)c(F)c2)c2cncnc12 (single isomer, unassigned) [Example 6] = yes (1)
• NC(=O)c1ccc(N[C@@H]2CNCC[C@H]2c2ccc(F)cc2)c2cncnc12 (single isomer, unassigned) [Example 81] = yes (1)
• NC(=O)c1ccc(N2CCN(c3cccc(Cl)c3)CC2)c2cncnc12 [Example 96] = no (0)
• CN(CCc1ccccc1)c1ccc(C(N)=O)c2ncncc12 [Example 103] = no (0)

Pending molecule:
Given NCC1CCCN(c2ccc(C(N)=O)c3ncncc23)C1 (racemic) [Example 56] , is recorded IC50 strictly lower than 60 nM?
no (0)
